- Test system: Shigella flexneri
- experiment notes: Antimicrobial activity against Shigella flexneri MTCC 1457 assessed as inhibition of visual microbial growth incubated for 24 hrs at 37 degC
- Type: functional
- setup conditions: MTCC 1457, 24 h
test readout: MIC (µg/mL)
Report as a plain number; the unit µg/mL is understood.

Lookup: Item N#Cc1ccc(-c2csc(N3N=C(c4cccs4)CC3c3cc4c(cc3Br)OCO4)n2)cc1 (centres undefined) with Shigella flexneri - MIC?
Found: 125

Lookup: Item N#Cc1cccc(-c2csc(N3N=C(c4cccs4)CC3c3ccc4c(c3)OCO4)n2)c1 (centres undefined) with Shigella flexneri - MIC?
Found: 125

Lookup: Item N#Cc1cccc(-c2csc(N3N=C(c4cccs4)CC3c3cc4c(cc3Br)OCO4)n2)c1 (centres undefined) with Shigella flexneri - MIC?
Found: 62.5

Lookup: Item Fc1cc(Cl)ccc1-c1csc(N2N=C(c3cccs3)CC2c2ccc3c(c2)OCO3)n1 (centres undefined) with Shigella flexneri - MIC?
Found: 125

Lookup: Item Fc1ccccc1-c1csc(N2N=C(c3cccs3)CC2c2cc3c(cc2Br)OCO3)n1 (centres undefined) with Shigella flexneri - MIC?
Found: 250

Lookup: Item O=[N+]([O-])c1ccc(-c2csc(N3N=C(c4cccs4)CC3c3cc4c(cc3Br)OCO4)n2)cc1 (centres undefined) with Shigella flexneri - MIC?
Found: 250

Lookup: Item Fc1ccc(-c2csc(N3N=C(c4cccs4)CC3c3cc4c(cc3Br)OCO4)n2)cc1 (centres undefined) with Shigella flexneri - MIC?
Found: 250

Lookup: Item Fc1cc(-c2csc(N3N=C(c4cccs4)CC3c3cc4c(cc3Br)OCO4)n2)ccc1Cl (centres undefined) with Shigella flexneri - MIC?
Found: 125

Lookup: Item N#Cc1ccc(-c2csc(N3N=C(c4cccs4)CC3c3ccc4c(c3)OCO4)n2)cc1 (centres undefined) with Shigella flexneri - MIC?
Found: 250

----------
For each record, write down the corresponding MIC.
- Tested on: Shigella flexneri
- experiment notes: Antimicrobial activity against Shigella flexneri MTCC 1457 assessed as inhibition of visual microbial growth incubated for 24 hrs at 37 degC
- Format: functional
- setup conditions: MTCC 1457, 24 h
Report as a plain number; the unit µg/mL is understood.

Lookup: What does the data say about its MIC? Entry: c1ccc(-c2csc(N3N=C(c4cccs4)CC3c3ccc4c(c3)OCO4)n2)cc1 (stereo unspecified)
Found: 500

Lookup: What does the data say about its MIC? Entry: Fc1ccc(-c2csc(N3N=C(c4cccs4)CC3c3ccc4c(c3)OCO4)n2)cc1 (stereo unspecified)
Found: 250

Lookup: What does the data say about its MIC? Entry: Clc1ccc(-c2csc(N3N=C(c4cccs4)CC3c3ccc4c(c3)OCO4)n2)cc1 (stereo unspecified)
Found: 250

Lookup: What does the data say about its MIC? Entry: Cc1ccc(-c2csc(N3N=C(c4cccs4)CC3c3cc4c(cc3Br)OCO4)n2)cc1 (stereo unspecified)
Found: 125

Lookup: What does the data say about its MIC? Entry: Fc1cc(Cl)ccc1-c1csc(N2N=C(c3cccs3)CC2c2cc3c(cc2Br)OCO3)n1 (stereo unspecified)
Found: 62.5

Lookup: What does the data say about its MIC? Entry: Brc1cc2c(cc1C1CC(c3cccs3)=NN1c1nc(-c3ccccc3)cs1)OCO2 (stereo unspecified)
Found: 250

Lookup: What does the data say about its MIC? Entry: Clc1ccc(-c2csc(N3N=C(c4cccs4)CC3c3cc4c(cc3Br)OCO4)n2)cc1 (stereo unspecified)
Found: 125

Lookup: What does the data say about its MIC? Entry: Fc1cc(-c2csc(N3N=C(c4cccs4)CC3c3ccc4c(c3)OCO4)n2)ccc1Cl (stereo unspecified)
Found: 125

Lookup: What does the data say about its MIC? Entry: CN[C@@H]1[C@H](O[C@H]2[C@H](O[C@H]3[C@H](O)[C@@H](O)[C@H](N=C(N)N)[C@@H](O)[C@@H]3N=C(N)N)O[C@@H](C)[C@]2(O)C=O)O[C@@H](CO)[C@H](O)[C@H]1O
Found: 6.25

Lookup: What does the data say about its MIC? Entry: O=[N+]([O-])c1ccc(-c2csc(N3N=C(c4cccs4)CC3c3ccc4c(c3)OCO4)n2)cc1 (stereo unspecified)
Found: 500

Lookup: What does the data say about its MIC? Entry: Cc1ccc(-c2csc(N3N=C(c4cccs4)CC3c3ccc4c(c3)OCO4)n2)cc1 (stereo unspecified)
Found: 250

----------
- System: Staphylococcus aureus
- experiment notes: Antimicrobial activity against Staphylococcus aureus MTCC 96 assessed as inhibition of visual microbial growth incubated for 24 hrs at 37 degC
- Type: functional
- setup conditions: MTCC 96, 24 h
For each record, write down the corresponding MIC.
Report as a plain number; the unit µg/mL is understood.

Lookup: What does the data say about its MIC? Entry: Cc1ccc(-c2csc(N3N=C(c4cccs4)CC3c3cc4c(cc3Br)OCO4)n2)cc1 (configuration not stated)
Found: 62.5

Lookup: What does the data say about its MIC? Entry: Fc1ccc(-c2csc(N3N=C(c4cccs4)CC3c3cc4c(cc3Br)OCO4)n2)cc1 (configuration not stated)
Found: 250

Lookup: What does the data say about its MIC? Entry: Fc1ccccc1-c1csc(N2N=C(c3cccs3)CC2c2cc3c(cc2Br)OCO3)n1 (configuration not stated)
Found: 250

Lookup: What does the data say about its MIC? Entry: CN[C@@H]1[C@H](O[C@H]2[C@H](O[C@H]3[C@H](O)[C@@H](O)[C@H](N=C(N)N)[C@@H](O)[C@@H]3N=C(N)N)O[C@@H](C)[C@]2(O)C=O)O[C@@H](CO)[C@H](O)[C@H]1O
Found: 6.25

Lookup: What does the data say about its MIC? Entry: N#Cc1ccc(-c2csc(N3N=C(c4cccs4)CC3c3ccc4c(c3)OCO4)n2)cc1 (configuration not stated)
Found: 125

Lookup: What does the data say about its MIC? Entry: Brc1cc2c(cc1C1CC(c3cccs3)=NN1c1nc(-c3ccccc3)cs1)OCO2 (configuration not stated)
Found: 125

Lookup: What does the data say about its MIC? Entry: N#Cc1cccc(-c2csc(N3N=C(c4cccs4)CC3c3ccc4c(c3)OCO4)n2)c1 (configuration not stated)
Found: 31.2

----------
- System: Staphylococcus aureus
- experiment notes: Antimicrobial activity against methicillin-resistant Staphylococcus aureus assessed as inhibition of visual microbial growth incubated for 24 hrs at 37 degC
- Type: functional
Activity calls are given as the source filed them. The rule behind the calls is not given here.
test readout: MIC

Use these answered entries as a reference point.
>>> endpoint_result("Fc1cc(Cl)ccc1-c1csc(N2N=C(c3cccs3)CC2c2cc3c(cc2Br)OCO3)n1 (stereo unspecified)")
"62.5 µg/mL"
>>> endpoint_result("N#Cc1cccc(-c2csc(N3N=C(c4cccs4)CC3c3cc4c(cc3Br)OCO4)n2)c1 (stereo unspecified)")
"62.5 µg/mL"
>>> endpoint_result("O=[N+]([O-])c1ccc(-c2csc(N3N=C(c4cccs4)CC3c3ccc4c(c3)OCO4)n2)cc1 (stereo unspecified)")
"inactive"
>>> endpoint_result("CN[C@@H]1[C@H](O[C@H]2[C@H](O[C@H]3[C@H](O)[C@@H](O)[C@H](N=C(N)N)[C@@H](O)[C@@H]3N=C(N)N)O[C@@H](C)[C@]2(O)C=O)O[C@@H](CO)[C@H](O)[C@H]1O")
"6.25 µg/mL"
>>> endpoint_result("Fc1cc(-c2csc(N3N=C(c4cccs4)CC3c3ccc4c(c3)OCO4)n2)ccc1Cl (stereo unspecified)")
"250 µg/mL"

Lookup: What does the data say about its MIC? Entry: Cc1ccc(-c2csc(N3N=C(c4cccs4)CC3c3ccc4c(c3)OCO4)n2)cc1 (stereo unspecified)
Found: 250 µg/mL

Lookup: What does the data say about its MIC? Entry: Clc1ccc(-c2csc(N3N=C(c4cccs4)CC3c3cc4c(cc3Br)OCO4)n2)cc1 (stereo unspecified)
Found: 62.5 µg/mL

Lookup: What does the data say about its MIC? Entry: O=[N+]([O-])c1ccc(-c2csc(N3N=C(c4cccs4)CC3c3cc4c(cc3Br)OCO4)n2)cc1 (stereo unspecified)
Found: 62.5 µg/mL

Lookup: What does the data say about its MIC? Entry: Brc1cc2c(cc1C1CC(c3cccs3)=NN1c1nc(-c3ccccc3)cs1)OCO2 (stereo unspecified)
Found: 250 µg/mL

Lookup: What does the data say about its MIC? Entry: Cc1ccc(-c2csc(N3N=C(c4cccs4)CC3c3cc4c(cc3Br)OCO4)n2)cc1 (stereo unspecified)
Found: 250 µg/mL

Lookup: What does the data say about its MIC? Entry: N#Cc1ccc(-c2csc(N3N=C(c4cccs4)CC3c3cc4c(cc3Br)OCO4)n2)cc1 (stereo unspecified)
Found: 125 µg/mL

Lookup: What does the data say about its MIC? Entry: N#Cc1cccc(-c2csc(N3N=C(c4cccs4)CC3c3ccc4c(c3)OCO4)n2)c1 (stereo unspecified)
Found: 62.5 µg/mL

Lookup: What does the data say about its MIC? Entry: N#Cc1ccc(-c2csc(N3N=C(c4cccs4)CC3c3ccc4c(c3)OCO4)n2)cc1 (stereo unspecified)
Found: 250 µg/mL

Lookup: What does the data say about its MIC? Entry: Fc1ccc(-c2csc(N3N=C(c4cccs4)CC3c3ccc4c(c3)OCO4)n2)cc1 (stereo unspecified)
Found: 250 µg/mL

Lookup: What does the data say about its MIC? Entry: Fc1ccccc1-c1csc(N2N=C(c3cccs3)CC2c2cc3c(cc2Br)OCO3)n1 (stereo unspecified)
Found: 250 µg/mL

Lookup: What does the data say about its MIC? Entry: Fc1ccccc1-c1csc(N2N=C(c3cccs3)CC2c2ccc3c(c2)OCO3)n1 (stereo unspecified)
Found: 250 µg/mL

Lookup: What does the data say about its MIC? Entry: Fc1cc(Cl)ccc1-c1csc(N2N=C(c3cccs3)CC2c2ccc3c(c2)OCO3)n1 (stereo unspecified)
Found: 125 µg/mL

Lookup: What does the data say about its MIC? Entry: Fc1cc(-c2csc(N3N=C(c4cccs4)CC3c3cc4c(cc3Br)OCO4)n2)ccc1Cl (stereo unspecified)
Found: 250 µg/mL

Lookup: What does the data say about its MIC? Entry: Fc1ccc(-c2csc(N3N=C(c4cccs4)CC3c3cc4c(cc3Br)OCO4)n2)cc1 (stereo unspecified)
Found: inactive

Lookup: What does the data say about its MIC? Entry: Clc1ccc(-c2csc(N3N=C(c4cccs4)CC3c3ccc4c(c3)OCO4)n2)cc1 (stereo unspecified)
Found: 250 µg/mL

Lookup: What does the data say about its MIC? Entry: c1ccc(-c2csc(N3N=C(c4cccs4)CC3c3ccc4c(c3)OCO4)n2)cc1 (stereo unspecified)
Found: 500 µg/mL
